Test system: RPMI-8226 leukemia
measurement-description: NCI-60 one-dose screen, 48 h (100 = growth as untreated, 0 = no growth, -100 = all killed)
condition-summary: 10 µM unless noted
About 83,000 compounds went through this panel and 20% of them were active in at least one assay; those are over-represented in the sample as a whole.
reported-metric: growth (%)
Give bare numbers, in %.

{"columns": ["compound", "growth [%]"],
 "data": [
  ["CC[C@H](C)[C@H](NC(=O)CN(C)C)C(=O)N(C)[C@H](C[C@@H](OC(C)=O)c1nc(C(=O)NC23C4C5C2C2C3C4C52C(=O)OC)cs1)C(C)C (stereo partly specified)", 20.1],
  ["CCOC(=O)P(=O)(OCC)OCC", 112],
  ["Cc1ccc(P(=O)(O)O)cc1", 112],
  ["CN1CCC2(CC1)C(C#N)C(=O)NC(=O)C2C#N (stereo unspecified)", 109],
  ["Nc1ccc(S(=O)(=O)F)cc1", 98.9]
]}

Then this compound:
// growth lookup, key: "Cc1c(C)c(N)c(C)c(C)c1N"
98.7

====

Consider the following molecules; for each one, report its growth.
Tested on: PC-3 prostate
measurement-description: NCI-60 one-dose screen, 48 h (100 = growth as untreated, 0 = no growth, -100 = all killed)
condition-summary: 10 µM unless noted
This is part of a sample that, as a whole, favours compounds with a hit. Of some 83,000 tested, about 20% had one in any assay.
Numbers only, in %.

Consider the reported growth for these molecules:
{"columns": ["molecule", "study-system", "growth / %"],
 "data": [
  ["Cc1ccc(P(=O)(O)O)cc1", "PC-3 prostate", 107],
  ["COc1cc(C2C3=C(CCCC3=O)N(CCO)c3cc4c(cc32)CCC4)cc(OC)c1OC (stereo unspecified)", "PC-3 prostate", 80.7],
  ["Cc1ccc(N2CCN(CCC#N)CC2)cc1", "PC-3 prostate", 92.5]
]}

For every item below, please supply its growth.
1. C[N+]12CCC34C5=CC(=O)C(=O)C=C5[N+]5(C)C(=O)CC6OCC=C(C1)C(CC32)C6C45 (stereo unspecified)
2. Cc1ccc(S(=O)(=O)n2cc([C@@]3(O)C[C@H](CSC#N)OC3=O)c3ccccc32)cc1
3. COC(=O)C1=CO[C@@H](C)[C@@H]2CN3CCc4c([nH]c5cc(OC)ccc45)[C@@H]3C[C@H]12
4. ClCc1ccc(Cl)c(Cl)c1

1: 106; 2: 78.5; 3: 93.9; 4: 91.9

For every item below, please supply its growth.
1. CC1=CC(=Nc2ccc(N(CCCl)CCCl)cc2)C=C(C)C1=O
2. Cc1cc2c(cc1-c1ccnc(/C=C/C(=O)O)c1)C(C)(C)CCC2(C)C
3. O=C(O)CNCP(=O)(O)O
4. Cc1c(C)c(N)c(C)c(C)c1N

1. 41.6
2. 86.8
3. 106
4. 73.6

====

Tested on: ACHN renal
measurement-description: NCI-60 one-dose screen, 48 h (100 = growth as untreated, 0 = no growth, -100 = all killed)
condition-summary: 10 µM unless noted
Compounds without any hit were thinned out: in the full panel of roughly 83,000, 20% have a hit.
Classification field. Basis: growth. Definitions: low class: < 50%; middle class: ≥ 50% and < 90%; high class: ≥ 90%

Recorded results for 3 molecules are shown here.
{"columns": ["molecule", "group-label"],
 "data": [
  ["N#CC(C#N)=C(C#N)C#N", "high class"],
  ["C[C@]12CCc3sc(Nc4ccc(OC(F)(F)F)cc4)nc3C1=CC[C@@H]1[C@@H]2CC[C@]2(C)C(=O)CC[C@@H]12", "middle class"],
  ["C[C@]12CC[C@H]3[C@@H](C[C@@H]4SC(Nc5cccc(F)c5)=N[C@@]45CC(=O)CC[C@]35C)[C@@H]1CCC2=O", "low class"]
]}

Band assignment needed for COC12CC3(C)C(C4=CC(=O)OC4)CCC3(O)C3CCC4=CC(=O)CCC4(CO1)C32 (stereo not given) please.
high class

====

Tested on: HCT-15 colon
measurement-description: NCI-60 one-dose screen, 48 h
condition-summary: 10 µM unless noted
The panel holds about 83,000 compounds, 20% with a hit somewhere; the sample as a whole holds those more often. Active and inactive are the calls of the source. Rule for the calls: active = growth percent below 10; inactive = the rest.
Please answer using one outcome listed in label 1 (active), label 0 (inactive)

Recorded results for 3 molecules are shown here.
{"columns": ["molecule", "study-system", "group-label"],
 "data": [
  ["CC12CCC3C(CCC4CC(O)CCC43C)C1CCC2=O (centres undefined)", "HCT-15 colon", "label 0"],
  ["C=CCOC(=O)C(Br)CC (centres undefined)", "HCT-15 colon", "label 0"],
  ["Cn1cc(-c2csc(-c3cn(CCCCN4CCOCC4)c4ccc(F)cc34)n2)c2cccnc21", "HCT-15 colon", "label 0"]
]}

I'd appreciate the recorded outcome for CCCC(C)SP(=S)(SC(C)CCC)SC(C)CCC (centres undefined) from this test.
label 0

I'd appreciate the recorded outcome for "Cc1cc(Br)c([N+](=O)[O-])cc1[N+](=O)[O-]" from this test.
label 0

I'd appreciate the recorded outcome for "CCCCOC(N)=O" from this test.
label 0

I'd appreciate the recorded outcome for "CO[C@H]1[C@H](O[C@@H]2C[C@@H]3C/C=C/C(=O)O[C@@H](CO)C[C@H](O)[C@@H]4C[C@H](C)[C@H](C/C=C\C=C\[C@H](C)C[C@H](C2)O3)O4)O[C@@H](C)[C@H](O)[C@H]1O" from this test.
label 0

====

Tested on: NCI-H522 lung
measurement-description: NCI-60 one-dose screen, 48 h
condition-summary: 10 µM unless noted
Protocol: Growth inhibition of the NCI-H522 human Non-Small Cell Lung tumor cell line is measured as a screen for anti-cancer activity. Cells are grown in 96 well plates and exposed to the test compound for 48 hours. Compounds are tested at a single concentration, which is 10^-5 M for most compounds. The reported endpoint is percent growth (GI% or GIPRCNT), where numbers from 0 - 100% represent growth inhibition, and numbers from -100% - 0 represent cell death. […]
The panel holds about 83,000 compounds, 20% with a hit somewhere; the sample as a whole holds those more often. Calls of active or inactive are those of the source. How the source made its calls: active means growth percent below 10; inactive means the rest.
Please answer using one outcome listed in active, inactive

{"columns": ["molecule", "study-system", "group-label"],
 "data": [
  ["O=C(NC1=NCC[Se]1)c1ccccc1O", "NCI-H522 lung", "inactive"],
  ["C[C@]12CCC3[C@@H](C[C@@H]4SC(Nc5ccccc5)=N[C@@]45CC(=O)CC[C@]35C)[C@@H]1CCC2=O (some centres not stated)", "NCI-H522 lung", "active"],
  ["C/C(=N/OC(=O)N(C)C)c1ccc(Cl)c(Cl)c1", "NCI-H522 lung", "inactive"],
  ["CC1=C2[C@H]3OC(=O)[C@@H](C)[C@@H]3CC[C@@]2(C)C=CC1=O", "NCI-H522 lung", "inactive"],
  ["O=[N+]([O-])c1cc(Cl)c(Cl)c([N+](=O)[O-])c1Cl", "NCI-H522 lung", "active"]
]}

I'd appreciate the recorded outcome for "CC[C@H](C)[C@H](NC(=O)c1ncccn1)C(=O)N(C)[C@H](C[C@@H](OC(C)=O)c1nc(C(=O)N[C@@H](Cc2ccccc2)C[C@H](C)C(=O)OC)cs1)C(C)C" from this test.
active

I'd appreciate the recorded outcome for "COc1ccc(N(CC(=O)NCCC[Te]c2ccccc2)C(=O)c2ccccc2)cc1" from this test.
active

I'd appreciate the recorded outcome for "CC(C)COC(=O)Cc1ccccc1" from this test.
inactive

I'd appreciate the recorded outcome for "COC[C@H]1OC(=O)c2coc3c2[C@@]1(C)C1=C(C3=O)[C@@H]2CCC(=O)[C@@]2(C)C[C@H]1OC(C)=O" from this test.
inactive

I'd appreciate the recorded outcome for "O=S(=O)(F)c1cccc(Cl)c1C[P+](c1ccccc1)(c1ccccc1)c1ccccc1" from this test.
inactive

I'd appreciate the recorded outcome for "COc1cc2c(cc1OC)[C@@H]1C(=O)c3ccc4c(c3O[C@@H]1CO2)C[C@H](C(C)C)O4" from this test.
inactive

I'd appreciate the recorded outcome for COc1ccc(C(C#N)C(C)=O)cc1 (configuration not stated) from this test.
inactive

I'd appreciate the recorded outcome for "CC(C)c1cccc(C(C)C)c1O" from this test.
inactive

I'd appreciate the recorded outcome for "Cc1ccc(C(=O)O[C@H](C(=O)O)[C@H](OC(=O)c2ccc(C)cc2)C(=O)O)cc1" from this test.
inactive

I'd appreciate the recorded outcome for "C=CC[PH+](c1ccccc1)c1ccccc1.C=CC[PH+](c1ccccc1)c1ccccc1.[Pt+2].[S-]c1nc2ccccc2[nH]1.[S-]c1nc2ccccc2[nH]1" from this test.
active

I'd appreciate the recorded outcome for CCOC(=O)c1cncn1C(C)c1ccccc1 (configuration not stated) from this test.
inactive

I'd appreciate the recorded outcome for N#CC(N)c1ccccc1 (configuration not stated) from this test.
inactive

I'd appreciate the recorded outcome for "CC(=O)Cc1ccc2c(c1)OCO2" from this test.
inactive

I'd appreciate the recorded outcome for O=C1c2ccccc2C(=O)N1N1CC1c1ccccc1 (configuration not stated) from this test.
inactive

I'd appreciate the recorded outcome for CC1(C)N(Nc2ccccc2)C(=O)C2CCCN21 (configuration not stated) from this test.
inactive

I'd appreciate the recorded outcome for "O=c1[nH]c(=O)[nH]c(=O)[nH]1" from this test.
inactive

I'd appreciate the recorded outcome for "O=C(Cc1ccccc1)c1ccccc1" from this test.
inactive
